- assaySummary: Pharmacokinetic parameters in rats after oral administration of the phosphate prodrug (Example 6)
- Assay type: in vivo
- studyConditions: male, Crl:WI(GLx/BRL/Han)IGS BR (Hanover-Wistar), po; rat plasma; phosphate prodrug given orally (gavage, aqueous suspension), 3 mg/kg in parent equivalent
endpointLabel: Cmax
Note: a bare number is incomplete; add the unit.

In: Look at this compound and give its reported Cmax. C[C@H](O)CNc1nc(Oc2ccc(F)cc2F)nc2[nH]nc(-c3ccccc3Cl)c12
Out: 1330 ng/mL

###

- assaySummary: Pharmacokinetic parameters in rats after oral administration of the succinate prodrug (Example 7)
- Format: in vivo
- studyConditions: male, Crl:WI(GLx/BRL/Han)IGS BR (Hanover-Wistar), rat plasma, succinate prodrug given orally, 10 mg/kg in parent equivalent
endpointLabel: AUC (µg·h/mL)
Numeric answer only, unit µg·h/mL assumed.

>>> recordedvalue("CC(C)(O)CNc1nc(Oc2ccc(F)cc2F)nc2[nH]nc(-c3ccccc3Cl)c12")
47.4

In the following, a different compound is considered.
In: Look at this compound and give its reported AUC. CC(C)(O)CNc1nc(Oc2ccc(F)cc2F)nc2c1c(-c1ccccc1Cl)nn2COC(=O)CCC(=O)O
Out: 20.9

###

Each entry below lists one item and its recorded Cmax value.
- assaySummary: Pharmacokinetic parameters in rats after oral administration of the succinate prodrug (Example 7)
- Assay type: in vivo
- studyConditions: male, Crl:WI(GLx/BRL/Han)IGS BR (Hanover-Wistar), rat plasma, succinate prodrug given orally (gavage, aqueous suspension), 10 mg/kg in parent equivalent
Numeric answer only, unit ng/mL assumed.

>>> recordedvalue("CC(C)(O)CNc1nc(Oc2ccc(F)cc2F)nc2[nH]nc(-c3ccccc3Cl)c12")
7050

In the following, a different compound is considered.
In: Look at this compound and give its reported Cmax. CC(C)(O)CNc1nc(Oc2ccc(F)cc2F)nc2c1c(-c1ccccc1Cl)nn2COC(=O)CCC(=O)O
Out: 9250

###

- assaySummary: Pharmacokinetic parameters in rats after oral administration of the phosphate prodrug (Example 6)
- Type: in vivo
- studyConditions: male, Crl:WI(GLx/BRL/Han)IGS BR (Hanover-Wistar), po; rat plasma; phosphate prodrug given orally, 3 mg/kg in parent equivalent
endpointLabel: AUC (ng·h/mL)
Numeric answer only, unit ng·h/mL assumed.

In: Look at this compound and give its reported AUC. C[C@H](O)CNc1nc(Oc2ccc(F)cc2F)nc2[nH]nc(-c3ccccc3Cl)c12
Out: 12600

###

Each entry below lists one item and its recorded Cmax value.
- assaySummary: Pharmacokinetic parameters in rats after oral administration of the succinate prodrug (Example 7)
- Type: in vivo
- studyConditions: male, Crl:WI(GLx/BRL/Han)IGS BR (Hanover-Wistar), rat plasma, succinate prodrug given orally (gavage, aqueous suspension), 3 mg/kg in parent equivalent
- Method: Male Crl:WI(GLx/BRL/Han)IGS BR (Hanover-Wistar) rats weighing 240-260 g were cannulated. Groups of three rats were used for each dose level of an experimental compound. […] The concentration of test compound was determined by HPLC-MS/MS.
Note: a bare number is incomplete; add the unit.

>>> recordedvalue("CC(C)(O)CNc1nc(Oc2ccc(F)cc2F)nc2c1c(-c1ccccc1Cl)nn2COC(=O)CCC(=O)O")
"1830 ng/mL"

In the following, a different compound is considered.
In: Look at this compound and give its reported Cmax. CC(C)(O)CNc1nc(Oc2ccc(F)cc2F)nc2[nH]nc(-c3ccccc3Cl)c12
Out: 1340 ng/mL
